Reference source for all entries: patent US9255101B2

Biological target: human H4 receptor (Homo sapiens, UniProt Q9H3N8);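 also: radioligand displacement of a [3H]-labelled ligand from membranes of CHO cells stably expressing human H4 receptor, bound radioactivity counted on filters by liquid scintillation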
Sequence (Q9H3N8 whole entry): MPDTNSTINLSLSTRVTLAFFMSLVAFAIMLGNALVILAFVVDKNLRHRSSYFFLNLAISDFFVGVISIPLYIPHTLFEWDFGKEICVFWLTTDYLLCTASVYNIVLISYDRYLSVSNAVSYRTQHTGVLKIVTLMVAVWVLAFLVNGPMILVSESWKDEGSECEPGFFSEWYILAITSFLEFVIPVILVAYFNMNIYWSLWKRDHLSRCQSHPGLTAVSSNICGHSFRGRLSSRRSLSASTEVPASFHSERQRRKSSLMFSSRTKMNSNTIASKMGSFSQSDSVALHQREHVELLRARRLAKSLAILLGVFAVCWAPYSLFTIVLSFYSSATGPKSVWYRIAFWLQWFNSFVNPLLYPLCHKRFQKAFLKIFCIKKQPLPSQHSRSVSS
Experiment: biochemical
Where a name gives a salt, the structure may show the parent alone.
parameter: Ki

CN1CCC(OC2c3ccccc3CCn3cc(C=CCOc4ccccc4)nc32)CC1 (stereo not shown) : < 30 nM
Cc1c(-c2ccc(N3CCN(C)C3=O)cc2)nc2n1CCc1ccccc1C2OC1CCN(C)CC1 (stereo not shown) : < 300 nM
CN1CCC(OC2c3ccccc3CCn3cc(C(C)(C)c4ccccc4)nc32)CC1 (stereo not shown) : < 1000 nM
CN1CCC(OC2c3ccccc3CCn3cc(-c4ccccc4Cl)nc32)CC1 (single isomer, unassigned) [Example 54B] : < 300 nM
CN1CCC(OC2c3cccc(-c4ccccc4)c3CCn3cc(-c4ccccc4)nc32)CC1 (stereo not shown) : < 300 nM

Please look at the items below and tell me Ki for each one, in order.
1. CN1CCC(OC2c3ccccc3CCn3cc(C=CC4CC4)nc32)CC1 (stereo not shown) [Example 99, oxalate]
2. CN1CCC(OC2c3ccccc3CCn3c2nc(-c2ccccc2Cl)c3C#N)CC1 (stereo not shown) [Example 272, oxalate]
3. CN1CCC(OC2c3ccccc3CCn3cc(-c4ccc(S(=O)(=O)N(C)C)cc4)nc32)CC1 (stereo not shown)

< 300 nM
< 30 nM
< 300 nM
